# testedTarget: human EGFR (d746-750/C797S) (Homo sapiens, UniProt P00533, C797S/DEL746-750)
# Construct: purchased SignalChem
# Sequence (P00533 with tags, fused parts or gaps DEL746-750/C797S): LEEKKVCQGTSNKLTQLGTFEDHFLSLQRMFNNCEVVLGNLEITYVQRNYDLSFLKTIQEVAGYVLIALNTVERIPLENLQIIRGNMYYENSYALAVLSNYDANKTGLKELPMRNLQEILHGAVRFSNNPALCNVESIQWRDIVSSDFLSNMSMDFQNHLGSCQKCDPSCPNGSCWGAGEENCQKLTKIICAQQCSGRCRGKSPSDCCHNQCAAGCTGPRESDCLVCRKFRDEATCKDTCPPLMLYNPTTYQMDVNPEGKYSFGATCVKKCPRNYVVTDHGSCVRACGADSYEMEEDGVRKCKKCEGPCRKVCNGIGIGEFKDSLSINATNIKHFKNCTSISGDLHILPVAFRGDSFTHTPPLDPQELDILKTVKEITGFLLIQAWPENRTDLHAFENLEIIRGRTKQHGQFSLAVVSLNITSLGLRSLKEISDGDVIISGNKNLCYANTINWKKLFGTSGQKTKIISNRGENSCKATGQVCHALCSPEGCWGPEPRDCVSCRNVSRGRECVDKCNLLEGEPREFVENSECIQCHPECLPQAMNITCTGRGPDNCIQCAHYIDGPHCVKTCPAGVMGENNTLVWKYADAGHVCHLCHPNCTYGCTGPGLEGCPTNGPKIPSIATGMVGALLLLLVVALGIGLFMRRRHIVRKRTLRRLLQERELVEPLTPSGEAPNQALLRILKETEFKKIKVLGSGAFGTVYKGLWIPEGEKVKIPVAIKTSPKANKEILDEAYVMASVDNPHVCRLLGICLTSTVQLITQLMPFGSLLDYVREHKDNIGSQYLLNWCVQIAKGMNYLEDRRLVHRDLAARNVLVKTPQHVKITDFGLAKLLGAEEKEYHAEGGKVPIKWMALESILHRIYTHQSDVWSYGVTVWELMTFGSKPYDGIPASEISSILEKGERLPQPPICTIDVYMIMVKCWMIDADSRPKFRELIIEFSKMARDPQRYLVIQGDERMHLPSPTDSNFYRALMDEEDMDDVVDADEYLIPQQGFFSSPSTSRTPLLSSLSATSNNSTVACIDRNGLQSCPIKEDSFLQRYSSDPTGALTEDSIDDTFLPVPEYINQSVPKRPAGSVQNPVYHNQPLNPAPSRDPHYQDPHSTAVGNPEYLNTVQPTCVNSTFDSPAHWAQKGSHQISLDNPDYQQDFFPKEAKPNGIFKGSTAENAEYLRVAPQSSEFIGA
# measurementDescription: Inhibitory activity against EGFR (d746-750/C797S) kinase
# Format: biochemical
# conditionLabel: Test Example 1, Table 4; ATP 14 μM, 60 minutes
Assign IC50 to each entry below.
Write the number in nM without appending the unit.

Item C#Cc1c(-c2cnc3ccccc3c2)c2c(N)ncnc2n1C12CCC(NC(=O)c3cnns3)(CC1)C2 [Example 18] ; assay system human EGFR (d746-750/C797S) (Homo sapiens, UniProt P00533, C797S/DEL746-750); IC50 reported as 0.78

// molecule C#Cc1c(-c2cnc3ccccc3c2)c2c(N)ncnc2n1C12CCC(NCc3cccnc3)(CC1)CC2 [Example 8] , assay human EGFR (d746-750/C797S) (Homo sapiens, UniProt P00533, C797S/DEL746-750), IC50 value: 0.73

Here C#Cc1c(-c2cnc3ccccc3c2)c2c(N)ncnc2n1C12CCC(N(C)C)(CC1)C2 [Example 11] was tested on human EGFR (d746-750/C797S) (Homo sapiens, UniProt P00533, C797S/DEL746-750), and its IC50 came to 1.6

Reported human EGFR (d746-750/C797S) (Homo sapiens, UniProt P00533, C797S/DEL746-750) IC50 for item C#Cc1c(-c2cnc3ccccc3c2)c2c(N)ncnc2n1C12CCC(NC(=O)c3ccnn3-c3ccccc3)(CC1)C2 [Example 26] was 0.71

Considering C#Cc1c(-c2cnc3ccccc3c2)c2c(N)ncnc2n1C12CCC(NC(=O)COC)(CC1)C2 [Example 28] , its IC50 with human EGFR (d746-750/C797S) (Homo sapiens, UniProt P00533, C797S/DEL746-750) was recorded as 0.89

Summary line: C#Cc1c(-c2cnc3ccccc3c2)c2c(N)ncnc2n1C12CCC(NC(=O)C(F)F)(CC1)C2 [Example 27] , human EGFR (d746-750/C797S) (Homo sapiens, UniProt P00533, C797S/DEL746-750), reported IC50 = 1.2

Tested on human EGFR (d746-750/C797S) (Homo sapiens, UniProt P00533, C797S/DEL746-750): C#Cc1c(-c2cnc3ccccc3c2)c2c(N)ncnc2n1C12CCC(NC(=O)CN(C)C)(CC1)CC2 [Example 55] . Observed IC50: 0.86

Considering C#Cc1c(-c2cnc3ccccc3c2)c2c(N)ncnc2n1C12CCC(NC(=O)NCC)(CC1)C2 [Example 50] , its IC50 with human EGFR (d746-750/C797S) (Homo sapiens, UniProt P00533, C797S/DEL746-750) was recorded as 0.97

---

# testedTarget: human EGFR (WT) (Homo sapiens, UniProt P00533)
# Construct: purchased Carna Biosciences Inc., Japan
# Sequence (P00533 25-1210): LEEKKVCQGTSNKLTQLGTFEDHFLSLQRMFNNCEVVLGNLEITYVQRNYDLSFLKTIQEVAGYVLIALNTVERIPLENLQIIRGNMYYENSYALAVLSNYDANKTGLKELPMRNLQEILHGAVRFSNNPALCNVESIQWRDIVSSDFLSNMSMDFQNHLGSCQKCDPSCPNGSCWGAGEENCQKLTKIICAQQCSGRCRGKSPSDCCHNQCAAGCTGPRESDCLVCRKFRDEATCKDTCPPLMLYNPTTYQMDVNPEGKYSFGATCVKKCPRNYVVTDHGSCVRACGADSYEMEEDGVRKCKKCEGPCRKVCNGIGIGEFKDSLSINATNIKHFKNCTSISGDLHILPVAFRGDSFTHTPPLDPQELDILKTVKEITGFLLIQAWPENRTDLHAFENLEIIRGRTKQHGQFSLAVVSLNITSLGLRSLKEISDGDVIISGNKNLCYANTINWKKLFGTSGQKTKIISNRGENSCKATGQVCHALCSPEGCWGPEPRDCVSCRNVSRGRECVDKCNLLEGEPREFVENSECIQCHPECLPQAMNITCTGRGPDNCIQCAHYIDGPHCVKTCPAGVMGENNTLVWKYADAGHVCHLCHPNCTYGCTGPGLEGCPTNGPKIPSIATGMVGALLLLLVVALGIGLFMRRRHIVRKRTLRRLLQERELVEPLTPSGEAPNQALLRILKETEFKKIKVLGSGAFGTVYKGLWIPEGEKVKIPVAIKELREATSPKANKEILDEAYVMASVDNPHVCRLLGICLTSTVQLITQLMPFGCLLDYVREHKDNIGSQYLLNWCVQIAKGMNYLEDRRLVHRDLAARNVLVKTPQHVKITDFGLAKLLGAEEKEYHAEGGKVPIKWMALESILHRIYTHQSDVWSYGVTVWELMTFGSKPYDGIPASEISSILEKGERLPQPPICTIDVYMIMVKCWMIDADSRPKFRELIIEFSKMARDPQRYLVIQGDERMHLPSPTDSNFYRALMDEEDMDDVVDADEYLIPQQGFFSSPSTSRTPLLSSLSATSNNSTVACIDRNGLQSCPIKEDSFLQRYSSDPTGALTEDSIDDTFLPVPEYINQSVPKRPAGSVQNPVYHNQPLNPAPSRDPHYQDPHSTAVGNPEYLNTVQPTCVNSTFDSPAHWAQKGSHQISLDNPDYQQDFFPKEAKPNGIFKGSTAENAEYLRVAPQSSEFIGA
# measurementDescription: Inhibitory activity against EGFR (WT) kinase
# Format: biochemical
# conditionLabel: Test Example 3, Table 12; same procedures as 5) in Test Example 1
Task for the reader: assign each of the following compounds its reported pIC50.
Here pIC50 is given on a logarithmic scale as minus log10 of the concentration in mol/L.

Record C#Cc1c(-c2cnc3ccccc3c2)c2c(N)ncnc2n1C12CCC(NC(=O)OCc3cnccn3)(CC1)C2 . Reported pIC50: 8.66

// pIC50 lookup, compound = C#Cc1c(-c2cnc3ccccc3c2)c2c(N)ncnc2n1C12CCC(NC(=O)c3cnc(CN(C)C)cn3)(CC1)C2 , result: 9.37

The recorded pIC50 for C#Cc1c(-c2cnc3ccccc3c2)c2c(N)ncnc2n1C12CCC(NC(=O)[C@@H]3CN(C)CCO3)(CC1)C2 is 8.55

Kindly note the recorded pIC50 for C#Cc1c(-c2cnc3ccccc3c2)c2c(N)ncnc2n1C12CCC(NC(=O)c3cnc(CNC)cn3)(CC1)C2 , which is 9.46

Value of measured pIC50 for the entry C#Cc1c(-c2cnc3ccccc3c2)c2c(N)ncnc2n1C12CCC(NC(=O)N3CCOCC3)(CC1)C2 : 8.57

// field: pIC50; key: C#Cc1c(-c2cnc3ccccc3c2)c2c(N)ncnc2n1C12CCC(NC(=O)c3cccc[n+]3[O-])(CC1)C2 ; value = 9.14

Entry C#Cc1c(-c2cnc3ccccc3c2)c2c(N)ncnc2n1C12CCC(NC(=O)c3ccc(P(C)(C)=O)cn3)(CC1)C2 , pIC50 reported as 9.03

---

# testedTarget: human EGFR (WT) (Homo sapiens, UniProt P00533)
# Construct: purchased Carna Biosciences Inc., Japan
# measurementDescription: Inhibitory activity against EGFR (WT) kinase
# Type: biochemical
# conditionLabel: Test Example 1, Table 6; ATP 1.5 μM
Label true when IC50 is strictly below 2 nM; otherwise label false.

Task: In the record for C#Cc1c(-c2cnc3ccccc3c2)c2c(N)ncnc2n1C12CCC(NC(=O)c3ncccn3)(CC1)C2 [Example 51] , is IC50 less than 2 nM?
Result: true

Task: I'd appreciate it if you could check whether C#Cc1c(-c2cnc3ccccc3c2)c2c(N)ncnc2n1C12CCC(CNC(=O)c3cnc(C)cn3)(CC1)C2 [Example 14] has IC50 smaller than 2 nM.
Result: true

Task: Dear reviewer, please state whether C#Cc1c(-c2cnc3ccccc3c2)c2c(N)ncnc2n1C12CCC(NC(=O)n3cccn3)(CC1)C2 [Example 21] has IC50 strictly beneath 2 nM.
Result: true

Task: Dear reviewer, please state whether C#Cc1c(-c2cnc3ccccc3c2)c2c(N)ncnc2n1C12CCC(NCC#N)(CC1)C2 [Example 4] has IC50 strictly beneath 2 nM.
Result: false

Task: Consider the compound C#Cc1c(-c2cnc3ccccc3c2)c2c(N)ncnc2n1C12CCC(NC(=O)c3nccnn3)(CC1)C2 [Example 19] . Is its IC50 strictly less than 2 nM?
Result: true

Task: Does the reported IC50 of C#Cc1c(-c2cnc3ccccc3c2)c2c(N)ncnc2n1C12CCC(NC(=O)c3cccnn3)(CC1)C2 [Example 49] stay below 2 nM?
Result: true

Task: Report whether reported IC50 is lower than 2 nM (strictly) for C#Cc1c(-c2cnc3ccccc3c2)c2c(N)ncnc2n1C12CCC(NC(=O)c3ccco3)(CC1)C2 [Example 41]
Result: false

Task: Confirm or reject: IC50 of C#Cc1c(-c2cnc3ccccc3c2)c2c(N)ncnc2n1C12CCC(NC(=O)c3cncc(C#N)c3)(CC1)C2 [Example 34] lies strictly below 2 nM
Result: true

Task: is_below(IC50, 2 nM) for C#Cc1c(-c2cnc3ccccc3c2)c2c(N)ncnc2n1C12CCC(NC(=O)c3nccn4ccnc34)(CC1)C2 [Example 42] ?
Result: true

Task: Could you please tell me whether IC50 recorded for C#Cc1c(-c2cnc3ccccc3c2)c2c(N)ncnc2n1C12CCC(NC(=O)c3ccncc3)(CC1)C2 [Example 43] is less than 2 nM?
Result: true

Task: IC50 strictly < 2 nM for this compound? C#Cc1c(-c2cnc3ccccc3c2)c2c(N)ncnc2n1C12CCC(NC(=O)c3cnc(Cl)cn3)(CC1)C2 [Example 15]
Result: true

Task: Item C#Cc1c(-c2cnc3ccccc3c2)c2c(N)ncnc2n1C12CCC(N3CCOCC3)(CC1)C2 [Example 9] : IC50 beneath 2 nM, strictly?
Result: false

Task: API: query returns whether the compound falls strictly under 2 nM in IC50. Query: C#Cc1c(-c2cnc3ccccc3c2)c2c(N)ncnc2n1C12CCC(NC(=O)c3ccnn3C)(CC1)CC2 [Example 6]
Result: false

Task: Is the reported IC50 for C#Cc1c(-c2cnc3ccccc3c2)c2c(N)ncnc2n1C12CCC(N(C)C(=O)c3cnc(C)cn3)(CC1)C2 [Example 57] strictly below 2 nM?
Result: false

Task: Answer whether the compound C#Cc1c(-c2cnc3ccccc3c2)c2c(N)ncnc2n1C12CCC(NC(=O)c3cnnn3C)(CC1)C2 [Example 22] has IC50 strictly less than 2 nM
Result: true

Task: # strict comparison: is reported IC50 < 2 nM? input = C#Cc1c(-c2cnc3ccccc3c2)c2c(N)ncnc2n1C12CCC(NC(=O)c3cncc(OCF)n3)(CC1)C2 [Example 38]
Result: true

Task: Does C#Cc1c(-c2cnc3ccccc3c2)c2c(N)ncnc2n1C12CCC(NC(=O)OCC)(CC1)C2 [Example 12] have IC50 strictly under 2 nM?
Result: false

Task: Dear reviewer, please state whether C#Cc1c(-c2cnc3ccccc3c2)c2c(N)ncnc2n1C12CCC(NC(=O)c3ccnn3C)(CC1)C2 [Example 24] has IC50 strictly beneath 2 nM.
Result: true

Task: A record lists C#Cc1c(-c2cnc3ccccc3c2)c2c(N)ncnc2n1C12CCC(NC(=O)c3cncnc3)(CC1)C2 [Example 2] . Is its IC50 below 2 nM?
Result: true

Task: Determine if C#Cc1c(-c2cnc3ccccc3c2)c2c(N)ncnc2n1C12CCC(NC(=O)NCC)(CC1)C2 [Example 50] shows IC50 strictly lower than 2 nM.
Result: true

Task: Dear colleague, could you confirm whether IC50 of C#Cc1c(-c2cnc3ccccc3c2)c2c(N)ncnc2n1C12CCC(NC(=S)N3CC4(CN(C)C4)C3)(CC1)CC2 [Example 56] falls below 2 nM? Thanks.
Result: true

Task: hey, is IC50 for C#Cc1c(-c2cnc3ccccc3c2)c2c(N)ncnc2n1C12CCC(NCc3cccnc3)(CC1)CC2 [Example 8] lower than 2 nM or not?
Result: false

Task: Hi there! Is IC50 for C#Cc1c(-c2cnc3ccccc3c2)c2c(N)ncnc2n1C12CCC(NC(C)=O)(CC1)C2 [Example 39] below 2 nM, do you know?
Result: true

Source listed as patent US11786534B2.
